biological target: Human immunodeficiency virus type 1 protease (Human immunodeficiency virus 1, UniProt Q72874)
Recorded log10(Ki) by entry
measurement_label: log10(Ki) (log10 of the value in nM)

1. CC(C)(C)OC(=O)NCCC(=O)Nc1cccc(C(c2c(O)oc3ccccc3c2=O)C2CC2)c1 (centres undefined)    1.93
2. CCC(c1cccc(NC(=O)CCn2ccc3ccccc32)c1)c1c(O)c2ccccc2oc1=O (centres undefined)    2.04
3. CCC(c1cccc(NC(=O)CNC(=O)OC(C)(C)C)c1)c1c(O)c2ccccc2oc1=O (centres undefined)    2.20
4. O=c1oc2ccccc2c(O)c1C(c1ccccc1)C1CC1 (centres undefined)    2.54
5. CCC(c1cccc(NC(=O)[C@H](C)NC(=O)OC(C)(C)C)c1)c1c(O)c2ccccc2oc1=O (some centres undefined)    2.23
6. CCC(c1cccc(NC(=O)CCCNC(=O)OC(C)(C)C)c1)c1c(O)c2ccccc2oc1=O (centres undefined)    3.20
7. COc1ccc2c(O)c(C(c3ccccc3)C3CC3)c(=O)oc2c1 (centres undefined)    2.23
8. CCC(c1cccc(C(=O)NCc2nc3ccccc3[nH]2)c1)c1c(O)oc2ccccc2c1=O (centres undefined)    3.64
9. CCC(Cc1ccccc1)c1cc(O)c(C(c2cccc(NC(=O)[C@H](Cc3cn(S(=O)(=O)c4ccc(C)cc4)cn3)NC(=O)OC(C)(C)C)c2)C2CC2)c(=O)o1 (some centres undefined)    1.28
